biological target: FimH^K12·DsG (Escherichia coli); construct: those of the corresponding full-length FimH·DsG complexes; made in house; host or cells: E. coli HM125 (periplasm); DsG peptide synthetic, from JPT; type: binding, E. coli strain K12; details: HM, FimH^K12·DsG; read-out: Kd (amplitudes of stopped-flow reactions)
MEASURED PARAMETER: Kd (µM)

compound="CCCCCCCO[C@H]1O[C@H](CO)[C@@H](O)[C@H](O)[C@@H]1O [HM, n-heptyl α-D-mannoside]" measured_parameter=Kd endpoint_result=4.2

====

target: FimH^F18·DsG (Escherichia coli, UniProt P08191, N91S/S99N/V48A); details: read-out: koff/kon; HM, FimH^F18·DsG, pH 7.4, 25 °C; ratio of rate constants
Sequence (P08191 22-300 V48A/N91S/S99N, other chains not shown): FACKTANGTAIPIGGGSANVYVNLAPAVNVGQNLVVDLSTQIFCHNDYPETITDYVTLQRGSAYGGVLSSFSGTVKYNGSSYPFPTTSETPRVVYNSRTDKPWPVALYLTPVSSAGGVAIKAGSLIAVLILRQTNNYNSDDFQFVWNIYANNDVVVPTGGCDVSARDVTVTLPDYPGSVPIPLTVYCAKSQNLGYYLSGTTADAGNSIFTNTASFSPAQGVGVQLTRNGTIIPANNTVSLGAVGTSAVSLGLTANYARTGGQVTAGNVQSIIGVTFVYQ
pKd: −log10 of the molar value.
MEASURED PARAMETER: pKd

molecule="CCCCCCCO[C@H]1O[C@H](CO)[C@@H](O)[C@H](O)[C@@H]1O [HM, n-heptyl α-D-mannoside]" measured_parameter=pKd endpoint_result=4.92

====

molecular target: FimHL^K12 (Escherichia coli, UniProt P08191); assay: Equilibrium titration of FimHL with GN-FP-4 (fluorescence); assay type: binding, E. coli strain K12; set-up: The isolated lectin domains (residues 1–159) of both FimH variants; made in house; host or cells: E. coli HM125 (periplasm); conditions: FimHL^K12, equilibrium fluorescence titration; read-out: Kd
Sequence (P08191 22-180): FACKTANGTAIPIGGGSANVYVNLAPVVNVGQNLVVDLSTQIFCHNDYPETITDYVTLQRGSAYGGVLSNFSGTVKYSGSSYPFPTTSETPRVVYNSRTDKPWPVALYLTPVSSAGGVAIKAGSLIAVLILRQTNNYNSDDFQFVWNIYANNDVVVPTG
pKd: −log10 of the molar value.
MEASURED PARAMETER: pKd

molecule="O=C(NCCNC(=S)Nc1ccc2c(c1)C(=O)OC21c2ccc(O)cc2Oc2cc(O)ccc21)c1ccc(-c2ccc(O[C@H]3O[C@H](CO)[C@@H](O)[C@H](O)[C@@H]3O)c(Cl)c2)cc1 [GN-FP-4]" tested_target="FimHL^K12 (Escherichia coli, UniProt P08191)" measured_parameter=pKd endpoint_result=10.15

====

target: FimH^K12·DsG (Escherichia coli); construct: those of the corresponding full-length FimH·DsG complexes; made in house; host or cells: E. coli HM125 (periplasm); DsG peptide synthetic, from JPT; format: binding, E. coli strain K12; conditions: HM, FimH^K12·DsG, pH 7.4, 25 °C; ratio of rate constants; read-out: koff/kon
MEASURED PARAMETER: Kd

compound="CCCCCCCO[C@H]1O[C@H](CO)[C@@H](O)[C@H](O)[C@@H]1O [HM, n-heptyl α-D-mannoside]" endpoint_result="4.3 µM"

====

biological target: FimHL^K12 (Escherichia coli, UniProt P08191); details: read-out: Kd (equilibrium titration; M); HM, FimHL^K12, pH 7.4, 25 °C; from competition equilibria with GN-FP-4
MEASURED PARAMETER: Kd (nM)

compound="CCCCCCCO[C@H]1O[C@H](CO)[C@@H](O)[C@H](O)[C@@H]1O [HM, n-heptyl α-D-mannoside]" tested_target="FimHL^K12 (Escherichia coli, UniProt P08191)" endpoint_result=1.1

====

molecular target: FimH^K12·DsG (Escherichia coli); construct: those of the corresponding full-length FimH·DsG complexes; made in house; host or cells: E. coli HM125 (periplasm); DsG peptide synthetic, from JPT; format: binding, E. coli strain K12; settings: HM, FimH^K12·DsG, pH 7.4, 25 °C; stopped-flow amplitudes; read-out: Kd (amplitude analysis; M)
MEASURED PARAMETER: Kd

compound="CCCCCCCO[C@H]1O[C@H](CO)[C@@H](O)[C@H](O)[C@@H]1O [HM, n-heptyl α-D-mannoside]" measured_parameter=Kd endpoint_result="4.2 µM"

====

target: FimHL^K12 (Escherichia coli, UniProt P08191); test: Equilibrium titration of FimHL with GN-FP-4 (fluorescence); assay type: binding, E. coli strain K12; design: The isolated lectin domains (residues 1–159) of both FimH variants; made in house; host or cells: E. coli HM125 (periplasm); settings: FimHL^K12, pH 7.4, 25 °C; read-out: Kd of GN-FP-4 binding
pKd: −log10 of the molar value.
MEASURED PARAMETER: pKd

compound="O=C(NCCNC(=S)Nc1ccc2c(c1)C(=O)OC21c2ccc(O)cc2Oc2cc(O)ccc21)c1ccc(-c2ccc(O[C@H]3O[C@H](CO)[C@@H](O)[C@H](O)[C@@H]3O)c(Cl)c2)cc1 [GN-FP-4]" measured_parameter=pKd endpoint_result=10.15

====

target: FimH^F18·DsG (Escherichia coli, UniProt P08191, N91S/S99N/V48A); conditions: read-out: Kd (amplitude analysis; M); HM, FimH^F18·DsG, pH 7.4, 25 °C; stopped-flow amplitudes
MEASURED PARAMETER: Kd

compound="CCCCCCCO[C@H]1O[C@H](CO)[C@@H](O)[C@H](O)[C@@H]1O [HM, n-heptyl α-D-mannoside]" measured_parameter=Kd endpoint_result="12 µM"

====

biological target: FimH^K12·DsG (Escherichia coli, UniProt P08191); construct: those of the corresponding full-length FimH·DsG complexes; made in house; host or cells: E. coli HM125 (periplasm); DsG peptide synthetic, from JPT; type: binding, E. coli strain K12; conditions: HM, FimH^K12·DsG, pH 7.4, 25 °C; read-out: Kd (equilibrium titration; M)
Sequence (P08191 22-300, other chains not shown): as the sequence (P08191 22-300 V48A/N91S/S99N, other chains not shown) above, with A27V, S70N, N78S counted along it
MEASURED PARAMETER: Kd

compound="CCCCCCCO[C@H]1O[C@H](CO)[C@@H](O)[C@H](O)[C@@H]1O [HM, n-heptyl α-D-mannoside]" tested_target="FimH^K12·DsG (Escherichia coli, UniProt P08191)" endpoint_result="3.6 µM"

====

target: FimH^F18·DsG (Escherichia coli, UniProt P08191, N91S/S99N/V48A); conditions: read-out: Kd (amplitudes of stopped-flow reactions); HM, FimH^F18·DsG, amplitude analysis
pKd: −log10 of the molar value.
MEASURED PARAMETER: pKd

compound="CCCCCCCO[C@H]1O[C@H](CO)[C@@H](O)[C@H](O)[C@@H]1O [HM, n-heptyl α-D-mannoside]" tested_target="FimH^F18·DsG (Escherichia coli, UniProt P08191, N91S/S99N/V48A)" measured_parameter=pKd endpoint_result=4.92

====

target: FimHL^K12 (Escherichia coli, UniProt P08191); conditions: HM, FimHL^K12, displacement of GN-FP-4
MEASURED PARAMETER: Kd

compound="CCCCCCCO[C@H]1O[C@H](CO)[C@@H](O)[C@H](O)[C@@H]1O [HM, n-heptyl α-D-mannoside]" endpoint_result="1.1 nM"

====

molecular target: FimH^K12·DsG (Escherichia coli, UniProt P08191); construct: those of the corresponding full-length FimH·DsG complexes; made in house; host or cells: E. coli HM125 (periplasm); DsG peptide synthetic, from JPT; type: binding, E. coli strain K12; conditions: HM, FimH^K12·DsG, equilibrium titration; read-out: equilibrium dissociation constant (Kd)
pKd: −log10 of the molar value.
MEASURED PARAMETER: pKd

compound="CCCCCCCO[C@H]1O[C@H](CO)[C@@H](O)[C@H](O)[C@@H]1O [HM, n-heptyl α-D-mannoside]" measured_parameter=pKd endpoint_result=5.44

====

molecular target: FimH^F18·DsG (Escherichia coli, UniProt P08191, N91S/S99N/V48A); conditions: read-out: equilibrium dissociation constant (Kd); HM, FimH^F18·DsG, equilibrium titration
pKd: −log10 of the molar value.
MEASURED PARAMETER: pKd

compound="CCCCCCCO[C@H]1O[C@H](CO)[C@@H](O)[C@H](O)[C@@H]1O [HM, n-heptyl α-D-mannoside]" measured_parameter=pKd endpoint_result=5.00

====

biological target: FimH^F18·DsG (Escherichia coli, UniProt P08191, N91S/S99N/V48A); conditions: read-out: Kd (equilibrium titration; M); HM, FimH^F18·DsG, pH 7.4, 25 °C
MEASURED PARAMETER: Kd (µM)

compound="CCCCCCCO[C@H]1O[C@H](CO)[C@@H](O)[C@H](O)[C@@H]1O [HM, n-heptyl α-D-mannoside]" result_unit=µM endpoint_result=9.9

====

target: FimHL^F18 (Escherichia coli, UniProt P08191, N91S/S99N/V48A); conditions: read-out: Kd (equilibrium titration; M); HM, FimHL^F18, pH 7.4, 25 °C; from competition equilibria with GN-FP-4
MEASURED PARAMETER: Kd

molecule="CCCCCCCO[C@H]1O[C@H](CO)[C@@H](O)[C@H](O)[C@@H]1O [HM, n-heptyl α-D-mannoside]" measured_parameter=Kd endpoint_result="3 nM"
